Can you tell me % inhibition at 100 µM for the items I'm about to list?
- Target desc: Chymotrypsin, from human pancreas (human, UniProt P17538 19-263)
- Sequence (P17538 19-263): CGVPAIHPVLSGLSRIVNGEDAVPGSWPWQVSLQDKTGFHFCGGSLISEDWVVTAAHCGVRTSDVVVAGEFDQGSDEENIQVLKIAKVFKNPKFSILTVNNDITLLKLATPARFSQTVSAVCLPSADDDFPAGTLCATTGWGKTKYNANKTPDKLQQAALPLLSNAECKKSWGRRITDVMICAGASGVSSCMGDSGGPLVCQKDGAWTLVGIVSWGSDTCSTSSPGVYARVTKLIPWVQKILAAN
- Test protocol: cell-based or functional assay
Bridges are numbered along the chain shown (N, C = ends). [ ]: non-standard residue; d: D form.

Exercise: Quick one: % inhibition at 100 µM of RETKSDPPIRF (HELM PEPTIDE1{R.E.T.K.S.D.P.P.I.R.F.[dP].P}$PEPTIDE1,PEPTIDE1,1:R1-13:R2$$$V2.0; SMILES CC[C@H](C)[C@@H]1NC(=O)[C@@H]2CCCN2C(=O)[C@@H]2CCCN2C(=O)[C@H](CC(=O)O)NC(=O)[C@H](CO)NC(=O)[C@H](CCCCN)NC(=O)[C@H]([C@@H](C)O)NC(=O)[C@H](CCC(=O)O)NC(=O)[C@H](CCCNC(=N)N)NC(=O)[C@@H]2CCCN2C(=O)[C@H]2CCCN2C(=O)[C@H](Cc2ccccc2)NC(=O)[C@H](CCCNC(=N)N)NC1=O) [Example 7] ?
Solution: 12%

Exercise: Quick one: % inhibition at 100 µM of cyclo(ICTKSDPAICR[dP]P) (disulfide 2-10) [Example 52] ?
Solution: 0%

Exercise: Quick one: % inhibition at 100 µM of XCTKSDPPICY (HELM PEPTIDE1{[Nle].C.T.K.S.D.P.P.I.C.Y.[dP].P}$PEPTIDE1,PEPTIDE1,2:R3-10:R3|PEPTIDE1,PEPTIDE1,1:R1-13:R2$$$V2.0; SMILES CCCC[C@@H]1NC(=O)[C@@H]2CCCN2C(=O)[C@H]2CCCN2C(=O)[C@H](Cc2ccc(O)cc2)NC(=O)[C@@H]2CSSC[C@H](NC1=O)C(=O)N[C@@H]([C@@H](C)O)C(=O)N[C@@H](CCCCN)C(=O)N[C@@H](CO)C(=O)N[C@@H](CC(=O)O)C(=O)N1CCC[C@H]1C(=O)N1CCC[C@H]1C(=O)N[C@@H]([C@@H](C)CC)C(=O)N2) [Example 44] ?
Solution: 24%

Exercise: Quick one: % inhibition at 100 µM of cyclo(ICTKSDPAICR[dP]P) (disulfide 2-10) [Example 14] ?
Solution: 0%

Exercise: Quick one: % inhibition at 100 µM of FCTKSDPPICS (HELM PEPTIDE1{F.C.T.K.S.D.P.P.I.C.S.[dA].D}$PEPTIDE1,PEPTIDE1,2:R3-10:R3|PEPTIDE1,PEPTIDE1,1:R1-13:R2$$$V2.0; SMILES CC[C@H](C)[C@@H]1NC(=O)[C@@H]2CCCN2C(=O)[C@@H]2CCCN2C(=O)[C@H](CC(=O)O)NC(=O)[C@H](CO)NC(=O)[C@H](CCCCN)NC(=O)[C@H]([C@@H](C)O)NC(=O)[C@@H]2CSSC[C@H](NC1=O)C(=O)N[C@@H](CO)C(=O)N[C@H](C)C(=O)N[C@@H](CC(=O)O)C(=O)N[C@@H](Cc1ccccc1)C(=O)N2) [Example 68] ?
Solution: 4.3%
